target: mGlyT-1b (Mus musculus); construct: host or cells: Flp-in-CHO; test: Glycine Uptake Inhibition Assay (mGlyT-1b); assay type: cell-based; conditions: IC50 data
Please provide measured IC50 for the entries that follow.
Mention the unit after the number when you answer.

Qu. Item COc1cc(C(F)(F)F)cc(OC(F)F)c1C(=O)N[C@H]1CCC[C@H]1N1CCCC1 (relative stereo) [Example 133] has what recorded IC50?
Ans. 90.8 nM

Qu. Could you share which IC50 value was measured for CCc1cc(C(F)(F)F)cc(C(F)(F)F)c1C(=O)NC1CCCC1N1CCCC1 (single isomer, unassigned) [Example 142] ?
Ans. 68 nM

Qu. IC50 lookup needed for COc1cc(C(F)(F)F)cc(C2CC2)c1C(=O)N[C@H]1CCC[C@H]1N1CCCC1 (relative stereo) [Example 131] , thanks.
Ans. 19.9 nM

Qu. Consider the molecule shown here: COc1cc(C(F)(F)F)cc(SC)c1C(=O)N[C@@H]1CCC[C@@H]1N1CCCC1 (single isomer, unassigned) [Example 59] What is its recorded IC50?
Ans. 61.1 nM

Qu. Requested read-out: IC50. Entry: O=C(N[C@H]1CCC[C@H]1N1CCCC1)c1ccc(C(F)(F)F)cc1C1CC1 (racemic) [Example 91]
Ans. 45.3 nM

Qu. Give the measured IC50 of COc1cc(C(F)(F)F)cc(Br)c1C(=O)N[C@H]1CCC[C@H]1N1CCCC1 (racemic) [Example 101] .
Ans. 94.8 nM

Qu. Reported IC50, molecule COc1cc(C(F)(F)F)cc(Br)c1C(=O)NC1CCCC1N1CCCC1 (single isomer, unassigned; (-)) [Example 114] : ____
Ans. 66.8 nM

* * *

Target: mGlyT-1b (Mus musculus)
Construct: host or cells: Flp-in-CHO
Sequence (P28571 1-651 isoform P28571-2): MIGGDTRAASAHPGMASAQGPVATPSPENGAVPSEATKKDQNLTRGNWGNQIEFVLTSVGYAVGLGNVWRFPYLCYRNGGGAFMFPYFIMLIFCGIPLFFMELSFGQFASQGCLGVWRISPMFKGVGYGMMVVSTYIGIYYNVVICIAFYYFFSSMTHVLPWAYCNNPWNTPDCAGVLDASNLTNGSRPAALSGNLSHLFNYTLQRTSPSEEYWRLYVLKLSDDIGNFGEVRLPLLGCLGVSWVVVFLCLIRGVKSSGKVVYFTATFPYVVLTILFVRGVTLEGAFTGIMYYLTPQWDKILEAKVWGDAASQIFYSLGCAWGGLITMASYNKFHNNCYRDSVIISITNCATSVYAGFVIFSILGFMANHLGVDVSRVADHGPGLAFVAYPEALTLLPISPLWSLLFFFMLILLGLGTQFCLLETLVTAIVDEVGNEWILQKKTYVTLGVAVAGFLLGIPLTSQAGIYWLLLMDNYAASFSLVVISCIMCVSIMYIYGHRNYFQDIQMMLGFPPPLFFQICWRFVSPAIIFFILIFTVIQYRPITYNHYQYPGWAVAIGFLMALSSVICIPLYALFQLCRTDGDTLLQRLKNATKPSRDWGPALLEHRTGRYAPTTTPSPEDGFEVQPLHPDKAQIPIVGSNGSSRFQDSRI
Experiment: Glycine Uptake Inhibition Assay (mGlyT-1b)
Format: cell-based
Conditions: IC50 data
readout: pIC50
Bear in mind: pIC50 is minus log10 of a mol/L concentration; give just that figure.

Qu. Can you look up pIC50 on mGlyT-1b (Mus musculus) for CCc1cccc(C)c1C(=O)N[C@H]1CCC[C@H]1N1CCCC1 (relative stereo) ?
Ans. 7.01

Qu. Requested read-out pIC50, target or system mGlyT-1b (Mus musculus), entry Cc1cc(C(F)(F)F)cc(C)c1C(=O)N[C@H]1CCC[C@H]1N1CCCC1 (relative stereo)
Ans. 7.44

Qu. Form field - read-out: pIC50; system: mGlyT-1b (Mus musculus); submitted item: CSc1cc(C(F)(F)F)cc(C(F)(F)F)c1C(=O)N[C@@H]1CCC[C@@H]1N1CCCC1 (single isomer, unassigned) [Example 118]
Ans. 7.22

Qu. Kindly state the measured pIC50 obtained for COc1cc(C(F)(F)F)cc(SC)c1C(=O)N[C@@H]1CCC[C@@H]1N1CCCC1 (racemic) [Example 55] with mGlyT-1b (Mus musculus).
Ans. 7.07

Qu. Lookup: pIC50 / mGlyT-1b (Mus musculus) / O=C(N[C@@H]1CCC[C@@H]1N1CCCC1)c1c(F)cc(C(F)(F)F)cc1C(F)(F)F (single isomer, unassigned)
Ans. 7.13

Values were extracted from patent US8404673B2.
